target: Neuronal acetylcholine receptor; alpha4/beta2 (Homo sapiens, UniProt P17787+P43681); assay: Displacement of [3H]nicotine from alpha4beta2 nAChR in human SH-EP1 cells after 2 hrs by liquid scintillation assay; type: cell-based
Sequence (P17787 whole entry): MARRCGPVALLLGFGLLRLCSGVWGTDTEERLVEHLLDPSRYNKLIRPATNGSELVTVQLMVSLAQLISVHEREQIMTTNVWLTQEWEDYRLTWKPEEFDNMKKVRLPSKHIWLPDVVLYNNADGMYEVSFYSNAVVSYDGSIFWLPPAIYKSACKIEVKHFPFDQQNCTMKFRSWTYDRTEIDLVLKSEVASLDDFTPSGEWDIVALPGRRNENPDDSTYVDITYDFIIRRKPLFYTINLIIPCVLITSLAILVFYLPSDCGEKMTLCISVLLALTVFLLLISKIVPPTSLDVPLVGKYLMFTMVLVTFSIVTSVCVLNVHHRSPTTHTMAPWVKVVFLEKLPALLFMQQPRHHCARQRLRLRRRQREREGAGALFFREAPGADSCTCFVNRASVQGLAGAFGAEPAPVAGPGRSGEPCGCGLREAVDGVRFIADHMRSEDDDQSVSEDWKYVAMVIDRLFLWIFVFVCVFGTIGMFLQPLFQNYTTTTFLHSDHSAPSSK
Sequence (P43681 whole entry): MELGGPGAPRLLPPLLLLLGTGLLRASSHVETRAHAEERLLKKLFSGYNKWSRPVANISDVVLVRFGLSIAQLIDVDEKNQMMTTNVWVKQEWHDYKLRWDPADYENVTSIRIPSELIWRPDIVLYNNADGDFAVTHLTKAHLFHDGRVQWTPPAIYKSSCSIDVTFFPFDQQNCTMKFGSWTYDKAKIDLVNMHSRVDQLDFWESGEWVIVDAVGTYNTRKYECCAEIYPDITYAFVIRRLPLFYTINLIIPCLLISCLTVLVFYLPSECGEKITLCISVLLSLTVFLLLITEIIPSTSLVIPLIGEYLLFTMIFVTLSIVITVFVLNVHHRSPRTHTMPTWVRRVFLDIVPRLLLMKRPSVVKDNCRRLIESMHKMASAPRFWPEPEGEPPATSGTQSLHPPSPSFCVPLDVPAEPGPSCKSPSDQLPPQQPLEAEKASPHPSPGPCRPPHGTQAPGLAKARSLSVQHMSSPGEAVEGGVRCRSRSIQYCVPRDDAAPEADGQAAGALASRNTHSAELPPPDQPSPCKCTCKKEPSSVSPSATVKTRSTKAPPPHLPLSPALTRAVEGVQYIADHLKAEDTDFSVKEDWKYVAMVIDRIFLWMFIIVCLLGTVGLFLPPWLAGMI
pKi: −log10 of the molar value.
Where pKi equals or exceeds 7, the correct label is satisfied; where it does not, the label is not satisfied.

Hi team, for O=C(c1ccco1)N1C[C@@H]2CN[C@H](C2)C1 , is the recorded pKi at or above 7?
satisfied

Hi team, for O=C(c1ccncc1)N1CC2CNCC(C2)C1 , is the recorded pKi at or above 7?
satisfied

Hi team, for N#Cc1ccoc1C(=O)N1CC2CNCC(C2)C1 , is the recorded pKi at or above 7?
satisfied

Hi team, for N#Cc1coc(C(=O)N2CC3CNCC3C2)c1 (configuration not stated) , is the recorded pKi at or above 7?
satisfied

Hi team, for O=C(c1occc1F)N1CC2CNCC(C2)C1 , is the recorded pKi at or above 7?
satisfied

We now examine a further compound.
Hi team, for Cc1ccoc1C(=O)N1CC2CNCC(C2)C1 , is the recorded pKi at or above 7?
not satisfied

* * *

Measured pKi by item
target: Neuronal acetylcholine receptor; alpha4/beta2 (Homo sapiens, UniProt P17787+P43681); assay: Displacement of [3H]nicotine from alpha4beta2 nAChR in human SH-EP1 cells after 2 hrs by liquid scintillation assay; type: cell-based
// scale note: pKi = -log10(conc_M); give the bare number

Quick note, pKi for O=C(C1CC1)N1C[C@H]2CN[C@@H](C2)C1 landed at 8.15

More entries:
Quick note, pKi for O=C(c1ccc(Br)o1)N1CC2CNCC(C2)C1 landed at 7.59

Quick note, pKi for CCOc1cncc(/C=C/CCNC)c1 landed at 7.92

Quick note, pKi for O=C(c1cc(Cl)co1)N1CC2CNCC(C2)C1 landed at 8.30

Quick note, pKi for O=C(c1occc1Br)N1CC2CNCC2C1 (configuration not stated) landed at 8.70

Quick note, pKi for O=C(c1occc1F)N1CC2CNCC2C1 (configuration not stated) landed at 7.64

Quick note, pKi for O=C(c1cnco1)N1CC2CNCC2C1 (configuration not stated) landed at 6.96

* * *

molecular target: Neuronal acetylcholine receptor; alpha4/beta2 (Homo sapiens, UniProt P17787+P43681); assay: Displacement of [3H]nicotine from alpha4beta2 nAChR in human SH-EP1 cells after 2 hrs by liquid scintillation assay; assay type: cell-based
observable: pKi
// scale note: pKi = -log10(conc_M); give the bare number

Quick note, pKi for O=C(c1ccc(Br)o1)N1CC2CNCC2C1 (configuration not stated) landed at 7.13

Quick note, pKi for O=C(c1ccc(F)o1)N1CC2CNCC2C1 (configuration not stated) landed at 8.10

Quick note, pKi for O=C(c1cc(F)co1)N1CC2CNCC2C1 (configuration not stated) landed at 7.49

Quick note, pKi for Cc1ncoc1C(=O)N1CC2CNCC2C1 (configuration not stated) landed at 8.10

Quick note, pKi for N#Cc1ccoc1C(=O)N1CC2CNCC2C1 (configuration not stated) landed at 7.89

More entries:
Quick note, pKi for O=C(c1ccc(F)o1)N1C[C@H]2CN[C@@H](C2)C1 landed at 7.92

Quick note, pKi for O=C(c1occc1Br)N1CC2CNCC(C2)C1 landed at 7.64
